Assay: refractive index (Na D-line) (dimensionless)
Settings: 303.15 K; 101.33 kPa; Liquid; Standard Abbe refractometry
Numbers after ± are expanded uncertainties.
refractive index listing for selected compounds.

Some compounds with recorded refractive index:
CCc1ccccc1 [ethylbenzene]    1.4902 ± 0.0007
CCCCc1ccccc1 [butylbenzene]    1.4845 ± 0.0007
CCCc1ccccc1 [propylbenzene]    1.4858 ± 0.0007
COc1ccccc1 [anisole]    1.5124 ± 0.0007
c1ccccc1 [benzene]    1.4947 ± 0.0008

Short answer for Cc1ccccc1 [toluene] : refractive index was 1.4914 ± 0.0006

---

Below, each entry is listed with its recorded viscosity.
Settings: 303.15 K; 101 kPa; Liquid; Capillary tube (Ostwald / Ubbelohde) method
Value expressed in mPa·s; do not type the unit.

The cases that follow already have their viscosity on record.
CCCCc1ccccc1    0.893
CCCc1ccccc1    0.744
COc1ccccc1    0.931

Noted for `c1ccccc1` : its viscosity reads 0.563

The recorded viscosity for `Cc1ccccc1` is 0.523

Per the records, this molecule ( `CCc1ccccc1` ) has viscosity equal to 0.596

---

A collection of compounds and their measured mass density
Conditions: 303.15 K; 101 kPa; Liquid
Kindly answer with a numeric value in kg/m3, unit omitted.

Completed entries (count: 5):
COc1ccccc1    984.37
CCCCc1ccccc1    852.23
Cc1ccccc1    857.46
c1ccccc1    868.26
CCc1ccccc1    858.01

Could you now look at the following compound, please?
Given item `CCCc1ccccc1` , the value recorded as its mass density is 854.71

---

Conditions: 293.15 K; 101 kPa; Liquid
Everything with mass density lower than 900 kg/m3 is -1; everything else, including exactly 900 kg/m3, is 1.

CCCCc1ccccc1 [butylbenzene]    -1
Cc1ccccc1 [toluene]    -1
CCCc1ccccc1 [propylbenzene]    -1
CCc1ccccc1 [ethylbenzene]    -1

Shifting focus to the molecule that follows.
Prompt: Test whether the molecule COc1ccccc1 [anisole] records mass density of 900 kg/m3 or higher.
Completion: 1

---

Some compounds, each annotated with its measured refractive index.
Test: refractive index (Na D-line) (dimensionless)
Details: 293.15 K; 101.33 kPa; Liquid; Standard Abbe refractometry
Note: the reply should be a number with no unit written.

Reference set, count: 3
Cc1ccccc1 [toluene]    1.4962
CCCCc1ccccc1 [butylbenzene]    1.4895
CCCc1ccccc1 [propylbenzene]    1.4916

In plain terms, COc1ccccc1 [anisole] has a documented refractive index of 1.5177

refractive index reading for c1ccccc1 [benzene] : 1.5011

The recorded refractive index for entry CCc1ccccc1 [ethylbenzene] equals 1.4957

---

Listing: viscosity of selected molecules
Details: 293.15 K; 101 kPa; Liquid; Capillary tube (Ostwald / Ubbelohde) method
// return numeric value only (unit: mPa·s, not printed)

What the record says about CCc1ccccc1 [ethylbenzene] : viscosity is 0.669

The measured viscosity associated with COc1ccccc1 [anisole] reads 1.084

Lab note: Cc1ccccc1 [toluene] gave viscosity of 0.588

Recorded result, CCCCc1ccccc1 [butylbenzene] , viscosity: 1.034

Memo: CCCc1ccccc1 [propylbenzene] , reported viscosity: 0.855

viscosity reading for c1ccccc1 [benzene] : 0.647

From: the NIST ThermoML archive (doi:10.1021/je0502546)
